Target: Amine oxidase (Homo sapiens, UniProt Q8TBI1)
Sequence (Q8TBI1 whole entry): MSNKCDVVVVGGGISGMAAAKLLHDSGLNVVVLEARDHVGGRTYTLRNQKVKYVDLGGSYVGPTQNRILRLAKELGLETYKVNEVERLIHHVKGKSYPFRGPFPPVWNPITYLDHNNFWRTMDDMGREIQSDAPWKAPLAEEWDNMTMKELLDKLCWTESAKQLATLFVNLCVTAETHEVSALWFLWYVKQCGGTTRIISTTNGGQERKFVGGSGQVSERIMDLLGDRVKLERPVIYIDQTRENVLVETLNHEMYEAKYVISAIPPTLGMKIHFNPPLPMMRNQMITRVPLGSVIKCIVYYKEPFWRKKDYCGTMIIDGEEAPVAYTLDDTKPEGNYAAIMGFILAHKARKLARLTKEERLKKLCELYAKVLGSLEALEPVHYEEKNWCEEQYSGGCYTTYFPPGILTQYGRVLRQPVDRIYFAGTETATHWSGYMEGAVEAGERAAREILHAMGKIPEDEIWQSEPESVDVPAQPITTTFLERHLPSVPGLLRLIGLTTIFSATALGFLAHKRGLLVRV
# maps each entry to its IC50
RECORDED ENDPOINT: IC50 (µM)

INSERT INTO assay_data (molecule, unit_text, recorded_result) VALUES
  ('O=C1C=CC(=O)c2c(O)ccc(O)c21 [5,8-dihydroxy-1,4-naphthoquinone]', 'µM', 0.86),
  ('O=C1C(O)=C(Cl)C(=O)c2ccccc21', 'µM', 3.45),
  ('O=C1C=CC(=O)c2c(O)cccc21', 'µM', 4.36);

Values from BindingDB's records for doi:10.1111/cbdd.12708
